Biological target: T1, Iron regulatory protein 1 (IRP1) (UniProt P21399 1-889)
T1 sequence: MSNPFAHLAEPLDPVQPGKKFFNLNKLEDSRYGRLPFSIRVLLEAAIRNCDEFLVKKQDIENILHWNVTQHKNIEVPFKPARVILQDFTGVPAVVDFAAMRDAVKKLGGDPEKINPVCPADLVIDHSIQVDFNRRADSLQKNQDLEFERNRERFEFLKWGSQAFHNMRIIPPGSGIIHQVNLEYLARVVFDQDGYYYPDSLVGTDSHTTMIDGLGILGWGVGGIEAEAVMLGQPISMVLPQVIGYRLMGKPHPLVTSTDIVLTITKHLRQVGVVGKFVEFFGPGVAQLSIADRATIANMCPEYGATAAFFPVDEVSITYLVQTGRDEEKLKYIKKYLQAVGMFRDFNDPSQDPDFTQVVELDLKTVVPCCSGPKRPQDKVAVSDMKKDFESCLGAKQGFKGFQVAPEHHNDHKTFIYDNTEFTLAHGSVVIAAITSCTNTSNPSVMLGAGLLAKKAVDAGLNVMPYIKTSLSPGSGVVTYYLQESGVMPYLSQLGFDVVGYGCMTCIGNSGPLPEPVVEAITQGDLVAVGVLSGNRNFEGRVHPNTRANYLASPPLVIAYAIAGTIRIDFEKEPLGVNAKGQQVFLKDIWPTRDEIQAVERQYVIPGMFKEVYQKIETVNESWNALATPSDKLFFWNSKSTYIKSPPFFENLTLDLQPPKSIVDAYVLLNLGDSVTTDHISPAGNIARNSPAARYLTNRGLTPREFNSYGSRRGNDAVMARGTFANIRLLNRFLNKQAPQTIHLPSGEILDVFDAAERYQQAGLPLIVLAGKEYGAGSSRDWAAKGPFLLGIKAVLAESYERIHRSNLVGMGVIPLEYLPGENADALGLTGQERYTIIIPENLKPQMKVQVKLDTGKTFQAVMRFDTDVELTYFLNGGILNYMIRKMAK
Assay: fluorescence quenching (intrinsic); 20 °C, no Fe; 20 mM HEPES pH 7.4, 100 mM KCl, 1 mM MgCl2; 50 nM IRP1, 0-200 nM RNA; 15 min; 25 °C (5-30 °C series); Fe2+ 50 uM anaerobic where stated
Settings: protein: commercial; hairpin (stem-loop), melted and reannealed
assayEndpoint: pKd
// pKd here means minus log10 of the molar concentration (mol/L)

[Q] May I ask what pKd has been recorded for ACUGGGAGUGGCCAUUCGACGACAGUGUGGUGUAAAGGAAUUCAUUAGCC (structured_RNA) [alpha-Syn IRE RNA (SNCA 5'-UTR)] ?
[A] 7.41

src = paper PMC11853559
